# Tested on: COLO 205 colon
# assay_explanation: NCI-60 one-dose screen, 48 h (100 = growth as untreated, 0 = no growth, -100 = all killed)
# reported_conditions: 10 µM unless noted
# Description: Cells are grown in 96 well plates and exposed to the test compound for 48 hours. Compounds are tested at a single concentration, which is 10^-5 M for most compounds. The reported endpoint is percent growth (GI% or GIPRCNT), where numbers from 0 - 100% represent growth inhibition, and numbers from -100% - 0 represent cell death. For example, a value of 40 represents 60% growth inhibition. A value of 0 means no net growth occurred over the course of the experiment. […]
The panel holds about 83,000 compounds, 20% with a hit somewhere; the sample as a whole holds those more often. Active and inactive are the calls of the source. How the source made its calls: active means growth percent below 10; inactive means the rest.
parameter_measured: growth

Worked cases, growth given:
| compound | system | result_value |
| --- | --- | --- |
| O=C(Nc1nc2ccccc2[nH]1)C(=O)Nc1nc2ccccc2[nH]1 | COLO 205 colon | 103% (inactive) |
| COc1ccc(OC)c(C2C(C#N)=C(N)Oc3cc(O)ccc32)c1 (stereo unspecified) | COLO 205 colon | 101% (inactive) |
| Nc1cccc2c(=S)c3ccccc3[nH]c12 | COLO 205 colon | 114% (inactive) |
| COc1ccc(NC(=O)COc2ccccc2)c(C(N)=O)c1 | COLO 205 colon | -12.1% (active) |
| COc1nc2c(cc1S(=O)(=O)c1ccccc1)CCc1c-2cnn1-c1ccccc1 | COLO 205 colon | 96.3% (inactive) |

Now look at this entry.
Input c1ccc(-c2n(Cc3ccc4ccccc4c3)c3ccccc3[n+]2Cc2ccc3ccccc3c2)cc1 . Output growth: -70.7% (active)

====

# Test system: U251 CNS
# assay_explanation: NCI-60 one-dose screen, 48 h (100 = growth as untreated, 0 = no growth, -100 = all killed)
# reported_conditions: 10 µM unless noted
This is part of a sample that, as a whole, favours compounds with a hit. Of some 83,000 tested, about 20% had one in any assay.
Entry flag: true if growth reaches 90%; false if it does not.

Would you please look over these solved cases?
| molecular_string | label_value |
| --- | --- |
| COC(=O)CCC(=O)c1ccccc1 | true |
| Clc1ccc(Nc2nc(Nc3ccccc3)nc(Nc3ccc(-c4cc(-c5ccc(Cl)cc5)on4)cc3)n2)cc1 | false |
| CC1=C(C/C=C(\C)CCC[C@H](C)CCC[C@H](C)CCCC(C)C)C(=O)c2ccccc2C1=O | true |

Request: Determine whether this compound has growth no lower than 90%: CCN1CCN(c2ccc(Nc3ncc4ccc5ncn(C(C)C)c5c4n3)nc2)CC1
Response: false

Request: Tell me whether growth is at least 90% here: COc1ccc(NC(=O)COc2ccccc2)c(C(N)=O)c1
Response: false

Request: Please indicate if the recorded growth for Clc1ccc(C2=NN(c3ccccc3)[C@H](c3cn(-c4ccccc4)nc3-c3ccccc3)C2)cc1 meets or exceeds 90%.
Response: true

====

Overview of recorded growth for various molecules
# System: SF-268 CNS
# assay_explanation: NCI-60 one-dose screen, 48 h (100 = growth as untreated, 0 = no growth, -100 = all killed)
# reported_conditions: 10 µM unless noted
This is part of a sample that, as a whole, favours compounds with a hit. Of some 83,000 tested, about 20% had one in any assay. Active and inactive are the calls of the source. How the source made its calls: active means growth percent below 10; inactive means the rest.

| molecule | growth |
| --- | --- |
| Clc1ccc2c(c1)C[C@H]1C[C@@H](c3cccs3)N2O1 | 102% (inactive) |
| Cn1c2ccccc2c2nn(C(=O)c3ccccc3)c(=O)nc21 | 111% (inactive) |
| COc1cc(Cn2cc(F)c(=O)[nH]c2=O)cc(OC)c1 | 96.1% [50 µM] (inactive) |
| Cc1ccc(C)c2c1sc1nc3nc4sc5ccccc5n4c(=N)c3c(=O)n12 | 95.6% (inactive) |
| O=[N+]([O-])c1cc2c(cc1Br)C1C(C3C2C(Cl)(Cl)C(Cl)=C(Cl)C3(Cl)Cl)C(Cl)(Cl)C(Cl)=C(Cl)C1(Cl)Cl (configuration not stated) | 102% (inactive) |
| O=C1/C(=C/c2ccc([N+](=O)[O-])cc2)Oc2ccc(O)cc21 | 89.9% (inactive) |
| O=C1OCC2=C1C(c1ccc3c(c1)OCO3)CC(=O)N2c1cccc(Cl)c1 (configuration not stated) | 110% (inactive) |
| O=c1[nH]c(-c2ccccn2)nc2sc3c(c12)CCCCCC3 | 40.6% (inactive) |

The recorded growth for entry O=C1/C(=C/c2ccc(Oc3ccccc3)cc2)N=C(c2ccccc2)N1CCc1cccs1 equals 80.8% (inactive)

Per the records, this molecule ( COc1cc(NC(=O)COc2ccccc2)c(C(N)=O)cc1OC ) has growth equal to 53.4% (inactive)

// COc1ccc(NC(=O)c2ccc3c(c2)nc(-c2ccc(Cl)cc2)n3-c2cc(C(C)(C)C)[nH]n2)cc1 : growth value = 76.2% (inactive)

The recorded growth for entry Cn1c2ccccc2c2nn(Cc3ccccc3)c(=O)nc21 equals 103% (inactive)

Lab note: measured growth of c1ccc2cc(-c3n(Cc4ccc5ccccc5n4)c4ccccc4[n+]3Cc3ccc4ccccc4n3)ccc2c1 was -3.09% (active)

The molecule identified as CC1CCCCN1S(=O)(=O)c1ccc(CN=C=S)cc1 (configuration not stated) registered its growth at 91.1% (inactive)

====

# Test system: SR leukemia
# assay_explanation: NCI-60 one-dose screen, 48 h
# reported_conditions: 10 µM unless noted
This is part of a sample that, as a whole, favours compounds with a hit. Of some 83,000 tested, about 20% had one in any assay. The source made the active and inactive calls. Rule for the calls: active = growth percent below 10; inactive = the rest.
Result category, one only: active, inactive

Sample answers from the record:
| compound | label_value |
| --- | --- |
| O=C1C(Cl)=C(NCCCN2CCOCC2)C(=O)c2ccccc21 | inactive |
| O=C1/C(=C/c2ccc(Cl)cc2)CN(Cc2cn(CCCNc3ccnc4cc(Cl)ccc34)nn2)C/C1=C\c1ccc(Cl)cc1 | active |
| O=C(CCCCCCC(=O)Nc1ccc2c(c1)/C(=C/c1ccc[nH]1)C(=O)N2)NO | active |
| O=C1NC(=S)S/C1=C\c1cccc([N+](=O)[O-])c1 | inactive |
| COc1ccc(-c2nc(Nc3ccc(F)cc3)nc(Nc3ccc4c(c3)nc(C)n4Cc3ccccc3)n2)cc1 | active |

Request: Outcome? O=C(Nc1ccccc1O)c1ccc(NS(=O)(=O)c2cccc3cccnc23)cc1
Response: inactive

Request: // param item: COc1ccc(OC)c(/C=C2\Oc3cc(O)ccc3C2=O)c1 ; yields the recorded call
Response: inactive

Request: What did this assay record as the result for COC(=O)c1c2c(c(C)[n+]([O-])c1C)C(=O)C=C(NCc1ccc(F)cc1)C2=O ?
Response: active

Request: Can you look up the reported call for Cc1cc(=O)oc2c1ccc1oc(C(=O)c3ccccc3)c(C)c12 for me?
Response: inactive

Request: // outcome(item) with item = CN1CCc2c(Sc3ccc(C(=O)NO)cc3)c3ccccc3n2C1
Response: inactive

Request: For O=C(C[Si](CC(=O)c1cccc(C(F)(F)F)c1)CC(=O)c1cccc(C(F)(F)F)c1)c1cccc(C(F)(F)F)c1 , which call appears in the assay record?
Response: active

Request: Short answer needed: outcome of this test for O=C1CN2CCC1C/C2=C\c1ccnc2c(Cl)cccc12 (stereo unspecified) ?
Response: active

====

Each entry below carries its recorded growth.
# Tested on: SNB-75 CNS
# assay_explanation: NCI-60 one-dose screen, 48 h (100 = growth as untreated, 0 = no growth, -100 = all killed)
# reported_conditions: 10 µM unless noted
This is part of a sample that, as a whole, favours compounds with a hit. Of some 83,000 tested, about 20% had one in any assay.
Return type: number; implicit unit %.

| compound | growth, % |
| --- | --- |
| COc1ccc2c(c1)c(=O)oc1c(C)c(OCC(C)=O)ccc12 | 108 |
| CC(C)(C)[Si](C)(C)OC1[C@@H](COC(N)=O)O[C@@H](n2cnc3c(N)ncnc32)[C@H]1O[Si](C)(C)C(C)(C)C (some centres undefined) | 99.4 |
| COc1ccc(NS(=O)(=O)c2ccc(-c3cnc(C4CC4)o3)cc2)cc1 | 44.9 |

Then there is this compound:
Field growth (SNB-75 CNS), entry O=[N+]([O-])c1cc2c(cc1Br)C1C(C3C2C(Cl)(Cl)C(Cl)=C(Cl)C3(Cl)Cl)C(Cl)(Cl)C(Cl)=C(Cl)C1(Cl)Cl (centres undefined) : 85.8

====

# Tested on: SF-295 CNS
# assay_explanation: NCI-60 one-dose screen, 48 h
# reported_conditions: 10 µM unless noted
The panel holds about 83,000 compounds, 20% with a hit somewhere; the sample as a whole holds those more often. Active and inactive are the calls of the source. How the source made its calls: active means growth percent below 10; inactive means the rest.
Parameter call: string, one of active, inactive

The following compounds have reported results that may help.
| compound | label_value |
| --- | --- |
| CCN(CC)CCCNc1ccc(C)c2sc3ccccc3c(=O)c12 | inactive |
| Cc1ccc2nc(NC(=O)CSC(=S)N3CCN(Cc4ccccc4)CC3)sc2c1 | active |
| Cc1oc2c(c1C(=O)N1CC[C@@H](N)C1)C(=O)c1c(c(O)c3ccccc3c1O)C2=O | inactive |

Request: Outcome? COc1nc2c(cc1S(=O)(=O)c1ccccc1)CCc1c-2cnn1-c1ccccc1
Response: inactive
